# Test system: MS2 coat protein
# assay.overview: apparent KD of MS2 coat protein; higher = weaker reporter binding
# test.settings: Eterna round: R107; input ligand: arginine 13.2 mM
Please map values of apparent KD of MS2 coat protein to classes as shown: label 0: < 20 nM; label 1: ≥ 20 nM and < 40 nM; label 2: ≥ 40 nM

{"columns": ["residue.sequence", "group.label"],
 "data": [
  ["GGACUAACCUGAAGGAGCGGCACGCAGAAACUGCAAAUUCCUCCACACGAGGAUCACCCGUGUCAGGUAGGUCGCAGGUUAGUCG [ArgBX 28]", "label 0"]
]}

In: Category lookup for the sequence CCUCGACAUGAGGAUCACCCAUGUAGAGAUACCAGCCUGUGAGAUGGCCCUUGGCAGCUCAUAUAGGGUACAGGAGUCGUUUUGA [Qugetila]
Out: label 1

In: Category lookup for the sequence GCGUUGGCCACGGCCGCCACUCAGGUACCGCGCGUAGUGAACUUACAUGAGGAUCACCCAUGUCUGAGGACCGGGUGGCCGCCAC [theeternabot_sameState_MS2_Trp_B_27]
Out: label 1

In: Category lookup for the sequence ACUGGAGGUGGAAGGAGCGGGAGACAUGAGCAUCACAUGAGGAUCACCCAUGUAGGAUCAUCCCAGGUAGGUCGCCAUGUCGAAA [rtfemullin]
Out: label 2

In: Category lookup for the sequence UAUACAUGGUAUAAAUAUAUAUAUAAGAAACGAGGACCGGUACGGCCGCCACUCGUGCCGGAAACAUGAGGAUCACCCAUGUAUU [AK1 Exclusion TrypA mod IceBolt]
Out: label 1

In: Category lookup for the sequence `UGUAUGUGAUCUGAUACCAGUCCAACUGGUAAAAUCUGAGGAUCACCCAGGUAAAAUUGGGACCCUUGGCAGCAGAUCGCAUACU`
Out: label 2

In: Category lookup for the sequence ACGUCGCAUAGGAAAACUAUGUGACGAAAUCGAGGACCGGUACGGCCGCCACUCGUCCUCAACAUGAGGAUCACCCAUGUAAUAA [Mat - Exclusion - Trytophan A - D7]
Out: label 0

----------
Each entry below carries its recorded apparent KD of K4 kissing-loop reporter.
# Test system: K4 kissing-loop RNA reporter;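 note: bound reporter read as fluorescence of individual clusters on recovered sequencing chips by microscopy, with normalized cluster intensities fitted with a binding model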
# assay.overview: apparent KD of K4 kissing-loop reporter; higher = weaker reporter binding
# test.settings: Eterna round: R107; input ligand: theophylline 20 uM
Please state the figure in nM; there is no need to write the unit.

Consider the following illustrative entries.
{"columns": ["residue.sequence", "val"],
 "data": [
  ["UGUGUUGUUUUGAUGUUUGGUGUUGCUUGGCAGGAUAUCGUAGAGGCGAGAAGGGCUUGUGAGCGGUAUGAGUGAUGUUUGUAGG [zwwrmullin]", 416],
  ["CGUUUAUAGCAGGAUACCAGUACCCAUAAAGUACGUUAAUAGUAGAGUGAUGUUCUGAAGUACCCUUGGCAGCUUCCGGUAAGUG [#25 K4 Theophylline B Exclusion]", 298]
]}

Next item in the queue.
In: GET /values?readout=apparent KD of K4 kissing-loop reporter&item= AUUAGGCGAAGUGAUGUUUCAUAUAAUGGCAAGGAUAUGUCCUUACACAGAAGGUGCUCUUAGUCAGGUUAUAUUAGGACUGCUA [theeternabot_exclusion_KL_FMN_A_42]
Out: 474

----------
Each entry below carries its recorded apparent KD of MS2 coat protein.
# System: MS2 coat protein
# assay.overview: apparent KD of MS2 coat protein; designed switch direction (-1 OFF switch, 1 ON switch): -1; higher = weaker reporter binding
# test.settings: input ligand: FMN 200 uM
Please state the figure in nM; there is no need to write the unit.

Consider the following illustrative entries.
{"columns": ["residue.sequence", "val"],
 "data": [
  ["AAGGACCGUGUAGGAUAUGCACUGAAUAGGUCAGGAGGGUUCUUACACAUGAGGAUCACCCAUGUGUAGAAGGACGGAAGGUCA [Eternabot solution 25] (Eterna round: R96, puzzle: Exclusion NG 2)", 12.7],
  ["CAUGAUUGGGAAGGAUAUUGACCUAGUUAGCGCCGAGAAGGUCCCUGUCACAUGAGGAUCACCCAUGUGAAUCUGGUGAAAGAG [Ex NG1 #93] (Eterna round: R96, puzzle: Exclusion NG 1)", 26.1]
]}

In: GET /values?readout=apparent KD of MS2 coat protein&item= GUCAGCUCGUGAGGAUAUACAUGCGUGCUUCGGCACGUAUGAUAGAUCACAUGAGGAUCACCCAUGUAGAAGGUACGAGCUGAC [ENG2/4-C1] (Eterna round: R96, puzzle: Exclusion NG 2)
Out: 13.4

In: GET /values?readout=apparent KD of MS2 coat protein&item= AUGCGUGGCUAGGAUAUUGAGGAAUUUAGUCAGCGAGAAGGAGCCACAUGAGGAUCACCCAUGUGGUGAAGCUC [jl-ex6-4.59 ViennaUCT mod] (Eterna round: R97, puzzle: Exclusion 6)
Out: 70.5

In: GET /values?readout=apparent KD of MS2 coat protein&item= CUUUCGUCUGUGGGUGGUGACAUGAGGAUCACCCAUGUUUUGCUCGUCUUGUGCCGGGCCCGGCGCCCGGGCCCGGC [-38.7, -62.6, A 8%] (Eterna round: R97, puzzle: Sensor, turn-off variant 1)
Out: 861

In: GET /values?readout=apparent KD of MS2 coat protein&item= AGAGACAAUCUAGGAUAUGUGUAUGAAGAGUGCGCAGAAGGAGACAUGAGGAUCACCCAUGUACAGCGACAGAAGACGACAACC [Matt's Exclusion 2] (Eterna round: R96, puzzle: Exclusion NG 1)
Out: 14.4

In: GET /values?readout=apparent KD of MS2 coat protein&item= UCUGGUCGAGGAUAUGCAAUCGUGCUUCGGCACGUAAGGUCACAUGAGGAUCACCCAUGUAGAAGGCGACCAGA [E2/4-A3] (Eterna round: R97, puzzle: Exclusion 2)
Out: 34.4
